The reported numbers originate from paper PMC10855902.

target.system: Recombinant human EGFR protein (Active) (ab155639) (Homo sapiens, UniProt P00533)
Sequence (P00533 25-645 limits assumed): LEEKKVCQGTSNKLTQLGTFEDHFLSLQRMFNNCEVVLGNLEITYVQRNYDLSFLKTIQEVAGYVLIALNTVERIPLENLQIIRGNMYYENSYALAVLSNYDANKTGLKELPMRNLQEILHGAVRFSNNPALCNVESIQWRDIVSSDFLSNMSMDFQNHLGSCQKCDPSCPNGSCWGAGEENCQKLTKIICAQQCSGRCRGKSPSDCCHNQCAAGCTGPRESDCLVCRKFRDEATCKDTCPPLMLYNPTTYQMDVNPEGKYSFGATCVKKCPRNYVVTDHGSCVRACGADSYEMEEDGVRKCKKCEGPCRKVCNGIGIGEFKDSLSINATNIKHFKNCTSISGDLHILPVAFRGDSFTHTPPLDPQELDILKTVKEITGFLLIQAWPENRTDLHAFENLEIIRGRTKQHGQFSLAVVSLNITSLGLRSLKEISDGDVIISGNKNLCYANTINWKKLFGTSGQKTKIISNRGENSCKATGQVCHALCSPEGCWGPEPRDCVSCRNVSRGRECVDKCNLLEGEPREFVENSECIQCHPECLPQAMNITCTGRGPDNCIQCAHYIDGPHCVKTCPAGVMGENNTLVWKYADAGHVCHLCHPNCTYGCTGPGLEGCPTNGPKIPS
assay.info: Microscale thermophoresis (MST) binding to EGFR
condition.set: MST; range over the tested fragment concentrations; labeled EGFR 25 nM; read-out: dissociation constants (range over the assay concentrations)
Ends that are not written are not given here.

# sequence.text, target.system, Kd
records = [
    ("VVGYIGERCQYRDL [34–47]", "Recombinant human EGFR protein (Active) (ab155639) (Homo sapiens, UniProt P00533)", "0.5 to 5.92 µM"),
]

====

target.system: Recombinant human EGFR protein (Active) (ab155639) (Homo sapiens, UniProt P00533)
assay.info: Microscale thermophoresis (MST) binding to EGFR
condition.set: MST; assay concentration 10 mM; labeled EGFR 25 nM; read-out: Kd
Peptide text beside a SMILES is read from it.
property.label: Kd

# compound, result
rows = [
    ("CC[C@H](C)[C@H](N)C(=O)N[C@@H](CCC(=O)O)C(=O)N[C@@H](C)C(=O)N[C@@H](CC(C)C)C(=O)O [23–26] (H-IEAL-OH)", "5.09 mM"),
]
